# target or test system: KAT8 Full length enzyme (Homo sapiens (Human), UniProt Q9H7Z6)
# Sequence (Q9H7Z6 whole entry): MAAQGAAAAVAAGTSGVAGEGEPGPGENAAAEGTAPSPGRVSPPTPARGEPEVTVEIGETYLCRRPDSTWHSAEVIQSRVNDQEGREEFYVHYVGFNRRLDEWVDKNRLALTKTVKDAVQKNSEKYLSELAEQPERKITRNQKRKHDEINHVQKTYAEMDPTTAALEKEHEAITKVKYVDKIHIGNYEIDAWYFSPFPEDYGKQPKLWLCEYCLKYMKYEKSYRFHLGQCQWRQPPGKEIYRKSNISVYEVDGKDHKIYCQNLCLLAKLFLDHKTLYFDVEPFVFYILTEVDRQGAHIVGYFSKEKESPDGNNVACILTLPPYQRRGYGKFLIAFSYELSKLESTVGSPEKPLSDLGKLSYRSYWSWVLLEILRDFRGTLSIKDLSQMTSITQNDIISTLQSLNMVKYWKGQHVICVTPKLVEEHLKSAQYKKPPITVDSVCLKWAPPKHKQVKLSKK
# experiment summary: KAT8 assay (SAMDI-MS acetylation of H3 1-21 peptide)
# Type: biochemical
# particulars: Morrison equation fit; replicate number in parentheses; read-out: KAT8 Ki (nM) (replicate number)
experimental endpoint: Ki

1) CCc1cc(Nc2cc3onc(NS(=O)(=O)c4cccc(Oc5ccccc5C)c4)c3cc2OC)n[nH]1 ... > 13000 nM
2) COc1cc2c(NS(=O)(=O)c3c(OC)cccc3OC)noc2cc1Nc1cc([C@H](C)O)n[nH]1 (single isomer, unassigned) ... > 13000 nM
3) COc1cc2c(NS(=O)(=O)c3c(OC)cccc3OC)noc2cc1Nc1nccc(C)n1 ... > 12700 nM
4) CCn1cc(Nc2cc3onc(NS(=O)(=O)c4c(OC)cccc4OC)c3cc2OC)nn1 ... > 16300 nM
